Each recorded value in this set is attributed to ChEMBL document CHEMBL4190350.

procedure details: Binding affinity to DNA (unknown origin) assessed as reduction in absorption maxima for methyl green/DNA complex incubated for 24 hrs by methyl green/DNA displacement assay
measured attribute: pIC50
Answers are plain numbers, as −log10 of the molar value.

The examples below pair each entry with its known result.
- compound: "CCOC(=O)c1c(NN=C(C(C)=O)C(C)=O)sc2c1CCCCC2"
  pIC50: 4.43
- compound: "CC(=O)C1(C(C)=O)N=Nc2sc3c(c2C1=O)CCCCC3"
  pIC50: 4.34
- compound: "CCOC(=O)/C(=N/Nc1sc2c(c1C(=O)OCC)CCCCC2)C(C)=O"
  pIC50: 4.39
- compound: "CC(=O)c1c(O)c2c3c(sc2[nH]c1=O)CCCCC3"
  pIC50: 4.25
- compound: "COc1cccc2c1C(=O)c1c(O)c3c(c(O)c1C2=O)C[C@@](O)(C(=O)CO)C[C@@H]3O[C@H]1C[C@H](N)[C@H](O)[C@H](C)O1"
  pIC50: 4.49

Provide pIC50 values for the following items, in order.
1. CC1=NN=C(C)C1=NNc1sc2c(c1C(=O)NN)CCCCC2
2. CCOC(=O)c1c(NN=C(C(C)=O)C(C)=O)sc2c1CCC2
3. NNC(=O)c1c(NN=C2C(N)=NN=C2N)sc2c1CCCCC2

[out]
1. 4.56
2. 4.37
3. 4.28

Provide pIC50 values for the following items, in order.
1. CCOC(=O)/C(=N/Nc1sc2c(c1C(=O)OCC)CCC2)C(C)=O
2. CCOC(=O)c1c(NN=C(C#N)C#N)sc2c1CCCCC2
3. CC(=O)C1(C(=O)c2ccccc2)N=Nc2sc3c(c2C1=O)CCCCC3 (configuration not stated)
4. CCOC(=O)c1c(N/N=C(\C(C)=O)C(=O)c2ccccc2)sc2c1CCC2

[out]
[4.18, 4.26, 4.67, 4.53]

----------
Tested on: Escherichia coli
procedure details: Antimicrobial activity against Escherichia coli incubated for 24 hrs by disc diffusion assay
Type: functional
measured attribute: diameter of the inhibition zone (DIZ) (mm)
One number for each entry, in mm.

The examples below pair each entry with its known result.
- smiles entry: "CC1(C)S[C@@H]2[C@H](NC(=O)[C@H](N)c3ccccc3)C(=O)N2[C@H]1C(=O)O"
  diameter of the inhibition zone (DIZ) / mm: 28
- smiles entry: "CCOC(=O)C(=NNc1sc2c(c1C(=O)OCC)CCC2)C(=O)OCC"
  diameter of the inhibition zone (DIZ) / mm: 7
- smiles entry: "N#Cc1c(O)c2c3c(sc2[nH]c1=O)CCCCC3"
  diameter of the inhibition zone (DIZ) / mm: 3

# input for lookup
[in] Quick check: diameter of the inhibition zone (DIZ) of `NNC(=O)c1c(NN=C2C(N)=NN=C2N)sc2c1CCCCC2` ?
[out] 19

----------
Give Activity for every item shown.
Tested on: Mus musculus
procedure details: Toxicity in mouse EAC cells implanted Swiss albino mouse assessed as RBC count at 0.5 mg for 9 days (reference value: 3.69 10^6/mm3)
Format: organism-based
condition summary: in vivo, 216 h
Numbers only, in ×10⁶ /mm3.

- compound: "CCOC(=O)c1c(NN=C(C#N)C#N)sc2c1CCCCC2"
  measured attribute: "Activity"
  unit abbreviation: "×10⁶ /mm3"
  result number: 5.09
- compound: "CCOC(=O)/C(=N/Nc1sc2c(c1C(=O)OCC)CCC2)C(C)=O"
  measured attribute: "Activity"
  unit abbreviation: "×10⁶ /mm3"
  result number: 5.49
- compound: "CC(=O)C1(C(C)=O)N=Nc2sc3c(c2C1=O)CCCCC3"
  measured attribute: "Activity"
  unit abbreviation: "×10⁶ /mm3"
  result number: 4.81
- compound: "CCOC(=O)c1c(NN=C(C(C)=O)C(C)=O)sc2c1CCC2"
  measured attribute: "Activity"
  unit abbreviation: "×10⁶ /mm3"
  result number: 4.95
- compound: "CC(=O)C1(C(=O)c2ccccc2)N=Nc2sc3c(c2C1=O)CCCCC3 (centres undefined)"
  measured attribute: "Activity"
  unit abbreviation: "×10⁶ /mm3"
  result number: 5.16

Provide Activity values for the following items, in order.
1. CC1=NN=C(C)C1=NNc1sc2c(c1C(=O)NN)CCCCC2
2. O=c1[nH]cc(F)c(=O)[nH]1 [FLUOROURACIL]
3. CCOC(=O)/C(=N/Nc1sc2c(c1C(=O)OCC)CCCCC2)C(C)=O
4. CCOC(=O)c1c(N/N=C(\C(C)=O)C(=O)c2ccccc2)sc2c1CCC2

[out]
5.57
5.21
5.51
4.79
